Each entry below lists one item and its recorded Kd value.
# measurementTarget: alpha-synuclein (natural human wildtype alpha-synuclein) (human, UniProt P37840 1-140)
# experimentDescription: BLI, ForteBio Octet QK; apparent KD
# Protocol: Binding kinetic of humanized 1H7 antibodies were also measured by bio-layer interferometry (BLI) using a ForteBio Octet QK instrument (ForteBio, Menlo Park, Calif.). Detailed binding kinetic parameters (association rate, apparent ka, dissociation rate, apparent kd, and affinity constant, apparent KD) were determined for chimeric 1H7 and various humanized 1H7 antibodies (Tables 6-7, FIGS. 4A-C). […]
measuredMetric: Kd (nM)

>  <binder>
Humanized 1H7 H4L4 (Hu1H7VHv4-Hu1H7VLv4) (antibody, V domains shown) VH: QVQLVQSGAEVKKPGASVKVSCKASGYSFTSYYIHWVRQAPGQGLEWIGWIYPGSGNTKYSEKFKGRATLTADTSTSTAYMELRSLRSDDTAVYFCARDGSYGFAYWGQGTLVTVSS VL: DIQLTQSPSSLSASVGDRVTITCKASQSVDYDGDSYMNWYQQKPGKAPKFLIYAASNLESGVPSRFSGSGSGTDFTLTISSLQPEDFATYYCQQSNEDPFTFGQGTKLEIK

>  <measuredMetric>
Kd

>  <outputUnit>
nM

>  <valueMeasured>
4.4

$$$$
>  <binder>
Humanized 1H7 H4L3 (Hu1H7VHv4-Hu1H7VLv3) (antibody, V domains shown) VH: QVQLVQSGAEVKKPGASVKVSCKASGYSFTSYYIHWVRQAPGQGLEWIGWIYPGSGNTKYSEKFKGRATLTADTSTSTAYMELRSLRSDDTAVYFCARDGSYGFAYWGQGTLVTVSS VL: DIQLTQSPSSLSASVGDRVTITCKASQSVDYDGDSYMNWYQQKPGKAPKFLICAASNLESGVPSRFSGSGSGTDFTLTISSLQPEDFATYYCQQSNEDPFTFGQGTKLEIK

>  <measuredMetric>
Kd

>  <outputUnit>
nM

>  <valueMeasured>
2.7

$$$$
>  <binder>
Humanized 1H7 H1L2 (Hu1H7VHv1-Hu1H7VLv2) (antibody, V domains shown) VH: QVQLVQSGAELKKPGASVKVSCKASGYSFTSYYIHWVKQAPGQGLEWIGWIYPGSGNTKYSEKFKGRATLTADTSTSTAYMELRSLRSDDTAVYFCARDGCYGFAYWGQGTLVTVSS VL: DIQLTQSPSSLSASVGDRVTITCKASQSVDYDGDSYMNWYQQKPGKAPKFLIYAASNLESGVPSRFSGSGSGTDFTLTISSLQPEDAATYYCQQSNEDPFTFGQGTKLEIK

>  <measuredMetric>
Kd

>  <outputUnit>
nM

>  <valueMeasured>
5.8

$$$$
>  <binder>
Humanized 1H7 H1L3 (Hu1H7VHv1-Hu1H7VLv3) (antibody, V domains shown) VH: QVQLVQSGAELKKPGASVKVSCKASGYSFTSYYIHWVKQAPGQGLEWIGWIYPGSGNTKYSEKFKGRATLTADTSTSTAYMELRSLRSDDTAVYFCARDGCYGFAYWGQGTLVTVSS VL: DIQLTQSPSSLSASVGDRVTITCKASQSVDYDGDSYMNWYQQKPGKAPKFLICAASNLESGVPSRFSGSGSGTDFTLTISSLQPEDFATYYCQQSNEDPFTFGQGTKLEIK

>  <measuredMetric>
Kd

>  <outputUnit>
nM

>  <valueMeasured>
2.9

$$$$
